Hello, the source for this data is ChEMBL document CHEMBL3826876, in case you need it.

Assay: Binding affinity to synthetic telomere 26 G-quadruplex DNA assessed as change in melting temperature at 4 mol equiv in presence of 100 mM KCl buffer by circular dichroism spectroscopic analysis
PROPERTY NAME: ΔTm (°C)
Answers are plain numbers, in °C.

// known answers, use as guide
Which ΔTm reading was recorded for the compound C(=N\Nc1ccccn1)/c1c(-c2ccccc2)nc2n1ccc1nc(-c3ccccc3)c(/C=N/Nc3ccccn3)n12 ? -1.6

How about CN1C(=C2\C(=N\Nc3ccccn3)c3ccccc3N2C)/C(=N/Nc2ccccn2)c2ccccc21 ? -2

Try this compound too: C(=N\NC1=NCCN1)/c1c(-c2ccccc2)nc2n1ccc1nc(-c3ccccc3)c(/C=N/NC3=NCCN3)n12 -8.9

Consider the following items and state reported ΔTm for each.
1. N=C(N)N/N=C/c1c(-c2ccsc2)nc2n1ccc1nc(-c3ccsc3)c(/C=N/NC(=N)N)n12
2. Cn1c(Cl)c(/C=N/NC(=N)N)c2ccc(/C=N/NC(=N)N)cc21

[-6.5, 5.8]

----------
Test: Binding affinity to synthetic telomere 23 parallel G-quadruplex DNA assessed as change in melting temperature at 4 mol equiv in presence of 100 mM KCl buffer by circular dichroism spectroscopic analysis
PROPERTY NAME: ΔTm (°C)
Numbers only, in °C.

Which ΔTm value is on record for C(=N\Nc1ccccn1)/c1c(-c2ccccc2)nc2n1ccc1nc(-c3ccccc3)c(/C=N/Nc3ccccn3)n12 ? 1.3

Next molecule: CN1C(=C2\C(=N\NC(=N)N)c3ccccc3N2C)/C(=N/NC(=N)N)c2ccccc21 7.7

API: the following record is the query input.
Can you share its ΔTm? I mean this molecule: C(=N\NC1=NCCN1)/c1c(-c2ccccc2)nc2n1ccc1nc(-c3ccccc3)c(/C=N/NC3=NCCN3)n12 10.8
